Values compiled from patent US20240197938A1.

- Method Notes: Conductivity testing (calculated CMC)
- Format: physicochemical
- Run Parameters: inner data points
Reported Calculated CMC, Inner Points values for a set of molecules
Output spec: scalar in M, unitless text.

Field: example entries. Status: answers known.
N=C(NCCCCCCNC(=N)NC(=N)Nc1ccc(Cl)cc1)NC(=N)Nc1ccc(Cl)cc1.O=C(O)C(O)C(O)C(O)C(O)C(O)CO.O=C(O)C(O)C(O)C(O)C(O)C(O)CO [RM13B, Chlorhexidine di-α-glucoheptonate] : 0.0131
N=C(NCCCCCCNC(=N)NC(=N)Nc1ccc(Cl)cc1)NC(=N)Nc1ccc(Cl)cc1.O=C(O)C(O)C(O)C(O)C(O)C(O)CO.O=C(O)C(O)C(O)C(O)C(O)C(O)CO [RM14B, Chlorhexidine di-β73-glucoheptonate] : 0.0152
N=C(NCCCCCCNC(=N)NC(=N)Nc1ccc(Cl)cc1)NC(=N)Nc1ccc(Cl)cc1.O=C(O)C(O)C(O)C(O)C(O)C(O)CO.O=C(O)C(O)C(O)C(O)C(O)C(O)CO [RM14C, Chlorhexidine di-β73-glucoheptonate] : 0.0156
N=C(NCCCCCCNC(=N)NC(=N)Nc1ccc(Cl)cc1)NC(=N)Nc1ccc(Cl)cc1.O=C(O)[C@H](O)[C@@H](O)[C@H](O)[C@H](O)CO.O=C(O)[C@H](O)[C@@H](O)[C@H](O)[C@H](O)CO [RM12A, Chlorhexidine digluconate] : 0.0128
N=C(NCCCCCCNC(=N)NC(=N)Nc1ccc(Cl)cc1)NC(=N)Nc1ccc(Cl)cc1.O=C(O)C(O)C(O)C(O)C(O)C(O)CO.O=C(O)C(O)C(O)C(O)C(O)C(O)CO [RM15A, Chlorhexidine di-β81-glucoheptonate] : 0.0154

Complete the entry with Calculated CMC, Inner Points for N=C(NCCCCCCNC(=N)NC(=N)Nc1ccc(Cl)cc1)NC(=N)Nc1ccc(Cl)cc1.O=C(O)[C@H](O)[C@@H](O)[C@H](O)[C@H](O)CO.O=C(O)[C@H](O)[C@@H](O)[C@H](O)[C@H](O)CO [RM12C, Chlorhexidine digluconate]
0.0143

Note Calculated CMC, Inner Points for the molecule shown: N=C(NCCCCCCNC(=N)NC(=N)Nc1ccc(Cl)cc1)NC(=N)Nc1ccc(Cl)cc1.O=C(O)[C@H](O)[C@@H](O)[C@H](O)[C@H](O)CO.O=C(O)[C@H](O)[C@@H](O)[C@H](O)[C@H](O)CO [RM12B, Chlorhexidine digluconate]
0.0131

Return Calculated CMC, Inner Points for the following molecule: N=C(NCCCCCCNC(=N)NC(=N)Nc1ccc(Cl)cc1)NC(=N)Nc1ccc(Cl)cc1.O=C(O)C(O)C(O)C(O)C(O)C(O)CO.O=C(O)C(O)C(O)C(O)C(O)C(O)CO [RM13A, Chlorhexidine di-α-glucoheptonate]
0.0122

Give a short answer stating reported Calculated CMC, Inner Points for N=C(NCCCCCCNC(=N)NC(=N)Nc1ccc(Cl)cc1)NC(=N)Nc1ccc(Cl)cc1.O=C(O)C(O)C(O)C(O)C(O)C(O)CO.O=C(O)C(O)C(O)C(O)C(O)C(O)CO [RM13C, Chlorhexidine di-α-glucoheptonate] .
0.0134

Determine from records and report Calculated CMC, Inner Points for N=C(NCCCCCCNC(=N)NC(=N)Nc1ccc(Cl)cc1)NC(=N)Nc1ccc(Cl)cc1.O=C(O)C(O)C(O)C(O)C(O)C(O)CO.O=C(O)C(O)C(O)C(O)C(O)C(O)CO [RM14A, Chlorhexidine di-β73-glucoheptonate]
0.0135

====

- Tested on: Staphylococcus epidermidis
- Method Notes: ASTM E2315-16 Time-Kill Procedure
- Assay type: cell-based
- Run Parameters: 30 seconds; 1.00% (wt. %)
Value Type: Log Reduction
Give the figure by itself; no unit, no explanation.

Here is how some compounds turned out for Log Reduction.
CC(=O)O.CC(=O)O.NC(=N\CCCCCC/N=C(N)/N=C(\N)Nc1ccc(Cl)cc1)/N=C(\N)Nc1ccc(Cl)cc1 [Sample P, chlorhexidine diacetate] : 3.75
N=C(NCCCCCCNC(=N)NC(=N)Nc1ccc(Cl)cc1)NC(=N)Nc1ccc(Cl)cc1.O=C(O)C(O)C(O)C(O)C(O)C(O)CO.O=C(O)C(O)C(O)C(O)C(O)C(O)CO [Sample H, chlorhexidine di-β73-glucoheptonate] : 3.75
N=C(NCCCCCCNC(=N)NC(=N)Nc1ccc(Cl)cc1)NC(=N)Nc1ccc(Cl)cc1.O=C(O)C(O)C(O)C(O)C(O)C(O)CO.O=C(O)C(O)C(O)C(O)C(O)C(O)CO [Sample G, chlorhexidine di-α-glucoheptonate] : 3.65

Proceed to the following item.
Tell me Log Reduction reported for N=C(NCCCCCCNC(=N)NC(=N)Nc1ccc(Cl)cc1)NC(=N)Nc1ccc(Cl)cc1.O=C(O)[C@H](O)[C@@H](O)[C@H](O)[C@H](O)CO.O=C(O)[C@H](O)[C@@H](O)[C@H](O)[C@H](O)CO [Sample I, chlorhexidine digluconate]
3.25

====

Quick reference: Log Reduction of the listed items.
- Test system: Salmonella abony
- Method Notes: ASTM E2315-16 Time-Kill Procedure
- Format: cell-based
- Run Parameters: 30 seconds; 1.00% (wt. %)
Form: value (number only, do not type unit).

N=C(NCCCCCCNC(=N)NC(=N)Nc1ccc(Cl)cc1)NC(=N)Nc1ccc(Cl)cc1.O=C(O)C(O)C(O)C(O)C(O)C(O)CO.O=C(O)C(O)C(O)C(O)C(O)C(O)CO [Sample H, chlorhexidine di-β73-glucoheptonate] : 3.44

Indicate the recorded Log Reduction value for this molecule: CC(=O)O.CC(=O)O.NC(=N\CCCCCC/N=C(N)/N=C(\N)Nc1ccc(Cl)cc1)/N=C(\N)Nc1ccc(Cl)cc1 [Sample P, chlorhexidine diacetate]
4.34

Output Log Reduction of N=C(NCCCCCCNC(=N)NC(=N)Nc1ccc(Cl)cc1)NC(=N)Nc1ccc(Cl)cc1.O=C(O)[C@H](O)[C@@H](O)[C@H](O)[C@H](O)CO.O=C(O)[C@H](O)[C@@H](O)[C@H](O)[C@H](O)CO [Sample I, chlorhexidine digluconate]
2.89

Specify measured Log Reduction for N=C(NCCCCCCNC(=N)NC(=N)Nc1ccc(Cl)cc1)NC(=N)Nc1ccc(Cl)cc1.O=C(O)C(O)C(O)C(O)C(O)C(O)CO.O=C(O)C(O)C(O)C(O)C(O)C(O)CO [Sample G, chlorhexidine di-α-glucoheptonate] .
3.39

====

- Method Notes: Conductivity testing (calculated CMC)
- Format: physicochemical
- Run Parameters: all data points
Entries and their measured Calculated CMC, All Points follow.

N=C(NCCCCCCNC(=N)NC(=N)Nc1ccc(Cl)cc1)NC(=N)Nc1ccc(Cl)cc1.O=C(O)C(O)C(O)C(O)C(O)C(O)CO.O=C(O)C(O)C(O)C(O)C(O)C(O)CO [RM14A, Chlorhexidine di-β73-glucoheptonate] : 0.0130 M

We now examine a further compound.
Provide measured Calculated CMC, All Points value, entry: N=C(NCCCCCCNC(=N)NC(=N)Nc1ccc(Cl)cc1)NC(=N)Nc1ccc(Cl)cc1.O=C(O)[C@H](O)[C@@H](O)[C@H](O)[C@H](O)CO.O=C(O)[C@H](O)[C@@H](O)[C@H](O)[C@H](O)CO [RM12B, Chlorhexidine digluconate]
0.0133 M

====

Here the recorded Calculated CMC, Outer Points is given for each entry.
- Method Notes: Conductivity testing (calculated CMC)
- Type: physicochemical
- Run Parameters: outer data points
Number in M, nothing else.

N=C(NCCCCCCNC(=N)NC(=N)Nc1ccc(Cl)cc1)NC(=N)Nc1ccc(Cl)cc1.O=C(O)[C@H](O)[C@@H](O)[C@H](O)[C@H](O)CO.O=C(O)[C@H](O)[C@@H](O)[C@H](O)[C@H](O)CO [RM12A, Chlorhexidine digluconate] : 0.0118

Please give the documented Calculated CMC, Outer Points of N=C(NCCCCCCNC(=N)NC(=N)Nc1ccc(Cl)cc1)NC(=N)Nc1ccc(Cl)cc1.O=C(O)C(O)C(O)C(O)C(O)C(O)CO.O=C(O)C(O)C(O)C(O)C(O)C(O)CO [RM15A, Chlorhexidine di-β81-glucoheptonate]
0.0113

Write down Calculated CMC, Outer Points measured for item N=C(NCCCCCCNC(=N)NC(=N)Nc1ccc(Cl)cc1)NC(=N)Nc1ccc(Cl)cc1.O=C(O)[C@H](O)[C@@H](O)[C@H](O)[C@H](O)CO.O=C(O)[C@H](O)[C@@H](O)[C@H](O)[C@H](O)CO [RM12B, Chlorhexidine digluconate]
0.0117

Give a short answer stating reported Calculated CMC, Outer Points for N=C(NCCCCCCNC(=N)NC(=N)Nc1ccc(Cl)cc1)NC(=N)Nc1ccc(Cl)cc1.O=C(O)C(O)C(O)C(O)C(O)C(O)CO.O=C(O)C(O)C(O)C(O)C(O)C(O)CO [RM14A, Chlorhexidine di-β73-glucoheptonate] .
0.0113

Supply recorded Calculated CMC, Outer Points for N=C(NCCCCCCNC(=N)NC(=N)Nc1ccc(Cl)cc1)NC(=N)Nc1ccc(Cl)cc1.O=C(O)C(O)C(O)C(O)C(O)C(O)CO.O=C(O)C(O)C(O)C(O)C(O)C(O)CO [RM13B, Chlorhexidine di-α-glucoheptonate] here.
0.0116

For N=C(NCCCCCCNC(=N)NC(=N)Nc1ccc(Cl)cc1)NC(=N)Nc1ccc(Cl)cc1.O=C(O)C(O)C(O)C(O)C(O)C(O)CO.O=C(O)C(O)C(O)C(O)C(O)C(O)CO [RM14C, Chlorhexidine di-β73-glucoheptonate] , write its Calculated CMC, Outer Points.
0.0111
